I'd be grateful if you could share measured normalized growth for these entries.
- test description: chemical genetic growth profiling, strain panel (AID 1159580);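 also: tested at 20 µM; growth read once vehicle control cultures reached saturation at 30 °C; 1 = growth at the plate median or of vehicle wells; lower values mean less growth of the strain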
- experimental setup: S. cerevisiae deletion strains, growth OD, locus YGR135W, strain pre9, active compounds read low
Screen size: about 5,500 compounds; about 2,000 (36%) were called active. Not shown: some 18% with an inconclusive outcome. The list shows a part of the results.
Give bare numbers.

Answer for every listed entry: what is its normalized growth? The entries follow.
1. CC(C)=CCCC1(C)C=Cc2c(O)c3c(c(CC=C(C)C)c2O1)OC12C(CC4CC1C(C)(C)OC2(C/C=C(/C)C(=O)O)C4O)C3=O (stereo not drawn)
2. CNCc1ccccc1
3. C/C=C(/C)C(=O)OC1CCC2(C)C3CCC4C5(O)CC(O)C6(O)C(CN7CC(C)CCC7C6(C)O)C5(O)CC42OC13O (stereo not drawn)
4. O=C(COc1ccc(Cl)cc1)N1CCN(Cc2ccc3c(c2)OCO3)CC1
5. COC1=C[C@@H]2[C@@H]3Cc4ccc(OC)c(O)c4[C@]2(CCN3C)CC1=O
6. CC1=CCC2C3(C)C1=CC(=O)OC3CC1C(C)(C)CC(O)C(O)C12C (stereo not drawn)
7. Cc1cc(O)c2c(c1)Cc1cccc(O)c1C2=O

Result ::
[1.06, 0.972, 0.928, 0.825, 0.959, 0.979, 1.02]
